Emax for assorted compounds
Biological target: hCB2R (Homo sapiens, UniProt P34972)
Sequence (P34972 whole entry): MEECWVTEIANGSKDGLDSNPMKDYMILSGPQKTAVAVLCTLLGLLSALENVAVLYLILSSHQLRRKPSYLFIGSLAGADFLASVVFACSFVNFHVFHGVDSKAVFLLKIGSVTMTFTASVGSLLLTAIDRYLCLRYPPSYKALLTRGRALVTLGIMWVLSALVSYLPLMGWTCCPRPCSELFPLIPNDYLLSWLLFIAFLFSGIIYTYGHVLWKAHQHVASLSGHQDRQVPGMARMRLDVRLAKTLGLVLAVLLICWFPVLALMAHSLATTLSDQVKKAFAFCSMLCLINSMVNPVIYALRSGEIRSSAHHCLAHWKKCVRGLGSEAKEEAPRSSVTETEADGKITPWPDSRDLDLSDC
Experiment: cell-based
Assay type: cell-based
Design: expressed in transfected cells; host or cells: Flp-In-293 (Invitrogen #R750-07), pcDNA5/FRT
Details: read-out: Emax ± SEM cAMP hCB2R
observed-property: Emax (%)

compound | target-desc | value-reported
CCCCCCC(C)(C)c1cc(O)c2c(c1)OC(C)(C)[C@@H]1CC=C(CO)C[C@@H]21 | hCB2R (Homo sapiens, UniProt P34972) | 94
CCCCC/C=C\C/C=C\C/C=C\C/C=C\CCCC(=O)OC(CO)CO | hCB2R (Homo sapiens, UniProt P34972) | 94
CCCCCCC(C)(C)c1cc(OC)c([C@@H]2C=C(CO)[C@@H]3C[C@H]2C3(C)C)c(OC)c1 | hCB2R (Homo sapiens, UniProt P34972) | 98
CCCCC/C=C\C/C=C\C/C=C\C/C=C\CCCC(=O)NCCO [Anandamide, N-arachidonoylethanolamine] | hCB2R (Homo sapiens, UniProt P34972) | 87
